These compounds were tested on factor IXa (Homo sapiens, UniProt P00740); pIC50 is the recorded read-out.
Sequence (P00740 227-461 limits assumed): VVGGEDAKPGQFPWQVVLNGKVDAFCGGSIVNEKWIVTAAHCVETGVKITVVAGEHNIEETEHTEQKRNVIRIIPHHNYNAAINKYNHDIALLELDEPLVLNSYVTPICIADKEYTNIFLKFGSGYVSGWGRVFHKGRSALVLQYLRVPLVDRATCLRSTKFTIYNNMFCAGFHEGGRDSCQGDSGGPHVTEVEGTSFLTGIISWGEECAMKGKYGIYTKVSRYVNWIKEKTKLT
Sequence (P00740 47-191 partner limits assumed): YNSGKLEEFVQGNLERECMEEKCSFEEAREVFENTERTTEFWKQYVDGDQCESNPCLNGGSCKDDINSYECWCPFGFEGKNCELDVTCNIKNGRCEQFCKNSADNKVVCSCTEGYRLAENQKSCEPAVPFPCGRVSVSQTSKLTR
pIC50: −log10 of the molar value.
quantity_measured: pIC50

(I) COc1cc(OC)cc(C(NC(=O)c2ccc(C(C)C)cc2)C(O)C(=O)Nc2ccc3nc(N)[nH]c3c2)c1 (centres unmarked)
(II) Nc1nc2ccc(NC(=O)C(O)C(NC(=O)c3ccc(N4CCOCC4)cc3)c3ccccc3)cc2[nH]1 (centres unmarked)
Of I and II , which one carries the higher reported pIC50? Please identify the chosen entry by its label.
I
